- Target Under Test: Chromo domain-containing protein 1 (Saccharomyces cerevisiae (strain ATCC 204508 / S288c) (Baker's yeast))
- Experimental Details: ScCHD-1 Enzyme Inhibition Assay
- Assay type: functional
- Design: scale not given: in the data most compounds retested in dose-response had high values
- Reported Conditions: 30 µM
Measurement Name: Percent Effect (%)

| Compound | Measurement Name | Recorded Result |
| --- | --- | --- |
| O=C(Nc1cccnc1)[C@@H]1C[C@H]2OCC[C@H]2N(Cc2ccsc2)C1 | Percent Effect | -2.28 |
| c1ccc(CO[C@@H]2CO[C@@]3(CCN(Cc4ccccn4)C3)C2)nc1 | Percent Effect | -3.05 |
| O=C1CSC(c2ccsc2)c2sccc2N1 (configuration not stated) | Percent Effect | 106 |
| c1cncc(CO[C@H]2CO[C@@]3(CCN(Cc4ccoc4)C3)C2)c1 | Percent Effect | 1.04 |
| CC[C@H]1N(C)CCC[C@]12CCC(=O)N2Cc1ccncc1 | Percent Effect | -8.84 |
| CC1=N[C@@]2(CC[C@@H]3CNC[C@@H]32)C(=O)N1CC(C)C | Percent Effect | -5.25 |
| Cc1cccc(CN2C[C@@H]3CCCO[C@@H]3[C@H](NS(C)(=O)=O)C2)n1 | Percent Effect | -7.06 |
| COc1cc(CNCC(O)c2ccc(F)c(F)c2)cc2c1OCO2 (configuration not stated) | Percent Effect | -5.65 |
| COc1ccc(C(=O)C2CCCN(Cc3ccc(C)o3)C2)c(OC)c1 (configuration not stated) | Percent Effect | 2.92 |
| Cc1cc(CN2CC[C@H]3OCC[C@@]3(C(=O)NC(C)C)C2)no1 | Percent Effect | -5.46 |
| COCCN1CCN(Cc2ccncc2)[C@H]2CS(=O)(=O)C[C@H]21 | Percent Effect | -4.57 |
| CCOCC(O)CN1CCN(C(=O)Cc2ccccc2Cl)CC1 (configuration not stated) | Percent Effect | -1.37 |
| Cc1cc(N2CCN3CCCCC3C2)n2nc(C)c(C)c2n1 (configuration not stated) | Percent Effect | -3.52 |
| CCOCC(O)CN1CCN(C(=O)Cc2ccc3c(c2)CCO3)CC1 (configuration not stated) | Percent Effect | -2.97 |
| CCNC(=O)NC(=O)CNC1(c2noc(C)n2)CCCCC1 | Percent Effect | -19.2 |
| Cc1ncccc1OCC(=O)N1CCN[C@H]2CS(=O)(=O)C[C@H]21 | Percent Effect | -1.55 |
| c1cncc(N2CCOCC3(CCCN(Cc4cccs4)C3)C2)c1 (configuration not stated) | Percent Effect | -1.37 |
